molecular target: Nuclear receptor subfamily 0 group B member 1 (Homo sapiens) (UniProt P51843); experiment: DAX1 (NR0B1) inhibitors, primary screen, cell-based, HEK293, Gal4-DAX1, luciferase luminescence (AID 504766); settings: HEK293 Gal4-DAX1 luciferase reporter, at 6.75 µM, active compounds read high;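 also: 0% = DAX1-transfected cells with DMSO and 100% = empty-vector control cells with DMSO; inhibition shows as a rise in luminescence from relieved DAX1 repression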
Sequence (P51843 207-470 limits assumed): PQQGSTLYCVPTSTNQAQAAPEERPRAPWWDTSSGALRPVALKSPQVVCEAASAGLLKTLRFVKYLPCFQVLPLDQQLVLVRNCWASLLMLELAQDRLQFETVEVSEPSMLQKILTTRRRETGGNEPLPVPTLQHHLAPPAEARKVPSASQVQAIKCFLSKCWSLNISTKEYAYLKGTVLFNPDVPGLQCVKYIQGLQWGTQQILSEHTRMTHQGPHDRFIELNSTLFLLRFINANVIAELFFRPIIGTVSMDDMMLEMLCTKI
Screen size: about 340,000 compounds; about 3,400 (1%) were called active. What follows is part of a selection rich in actives, with near analogues and random picks from the rest.
Recorded Endpoint: inhibition (%)
Field format: number, assumed %, no unit text.

input: Find the measured inhibition: item CC(=O)N1CCN(CCN=CC2=C(O)CC(C)(C)CC2=O)CC1 , target or system Nuclear receptor subfamily 0 group B member 1 (Homo sapiens) (UniProt P51843).
output: 0.1

input: And the next one, CNC(=O)C[C@H]1C(=O)N(Cc2ccccc2)C[C@@H]1CSC ?
output: 0.53

input: And the next one, O=C1CC(c2ccccc2)CC(O)=C1C=NCCN1CCOCC1 (centres undefined) ?
output: -0.18

input: And the next one, COc1ccc2c(c1)CCCO[C@]21O[C@H](CCO)C[C@H](O)[C@H]1O ?
output: 0.36

input: And the next one, CC(NC(=O)c1cc(=O)[nH]c2ccccc12)c1ccc(F)cc1F (centres undefined) ?
output: 0.16

input: And the next one, Cn1c(CCN2CCN(c3ccccn3)CC2)nc2cc(NS(=O)(=O)c3ccc(F)cc3)ccc21 ?
output: 0.29

input: And the next one, C/C(=N\NC(=S)NC1CCCCC1)c1ccc(C)o1 ?
output: 0.98

input: And the next one, CCn1c(SCC(=O)NC2CC2)nnc1-c1ccccc1OC ?
output: 1.22

input: And the next one, O=C(Nc1ncccc1O)c1ccc(S(=O)(=O)N2CCCC2)cc1 ?
output: 2.95

input: And the next one, CC1CCC2(CC1)NC(=O)N(CC(=O)NCc1ccco1)C2=O (centres undefined) ?
output: 3.52

input: And the next one, O=C(Nc1ncccc1O)c1ccc(S(=O)(=O)N2CCCCCC2)cc1 ?
output: 1.6

input: And the next one, Cc1occc1-c1nnc(SCC(=O)NC2CCCCC2)o1 ?
output: 0.12

input: And the next one, Cc1cccc(C(=O)NC2CCN(CC(=O)Nc3cccc(Cl)c3)CC2)c1 ?
output: 0.29

input: And the next one, Brc1ccccc1C1N=C(c2ccccc2)NO1 (centres undefined) ?
output: 1.91

input: And the next one, Cc1ccc(S(=O)(=O)N2C[C@@H](C)[C@]3(C2)[C@H](O)[C@H](OC(=O)NCc2ccccc2)C[C@H]2C(=O)N(c4ccccc4)C(=O)[C@H]23)cc1 ?
output: 0.21

input: And the next one, O=C(O)c1ccccc1Cc1ccc(F)c2ccccc12 ?
output: 1.12

input: And the next one, COc1ccc([C@H]2N[C@]3(CCCN(CC4CCCCC4)C3=O)[C@H]3C(=O)N(C)C(=O)[C@@H]23)cc1 ?
output: 0.64

input: And the next one, Cc1ccc(S(=O)(=O)N2C[C@H]3n4c(=O)ccc(=O)n4C[C@H](OC(=O)NC4CCCC4)[C@@]3(O)C2)cc1 ?
output: 0.12

input: And the next one, CCCCOC(=O)c1[nH]c(C)c(C(=O)OC)c1C ?
output: 2.23
